Molecular target: T1, His-tagged CD47 (Homo sapiens (Human), UniProt Q08722 19-139, limits assumed)
T1 construct: not shown: His tag
Test: flow cytometry blocking assay: His-tagged CD47 with Fab on SIRPα-expressing CHO cells (SIRPα is the blocked ligand), anti-His-APC, MFI
measured property: IC50 (read off the curve)

Example binders with recorded IC50 (read off the curve):
binder	measured property	result
ABU9 (Fab) (Fab, V domains shown, Phage-derived Fab: murine VL and VH fused to human CL and CH1) VH: EVQLQQSGPELVKPGASVKLSCKASGFTFTNYYIHWVKQRPGQGPEWIGWIYLGSGNTKYNEKFKGKATLTADTSSSTAYLQLSTLISEDSAVYYCARYDYDLYLDSWGQGTTVTVSS VL: DIKMNQSPSSLSASLGDTITITCHASQNINVWLSWYQQKPGNIPKLLIYKASNLHTGVPSRFSGSGSGTGFTLTISSLQPEDIATYYCQQGQSYPLTFGAGTKLELK	IC50 (read off the curve)	~2 nM
ABU14 (Fab) (Fab, V domains shown, Phage-derived Fab: murine VL and VH fused to human CL and CH1) VH: EVQLQQSGPELVKPGASVKISCKASGYSFTNYHIHWVKQRPGQGLEWIGWIYPGSGNTKYNEKFKGMAILTADTSSSTAYMQLSSLTSEDSAVYYCARYDYDLYLHSWGQGTTVTVSS VL: DIQINQSPSSLSASLGDTITITCHASQNINVWLSWYQQKPGNIPKLLIYKASNLHTGVPSRFSGSGSGTGFTLTISSLQPEDIATYYCQQGQSYPLTFGAGTKLEIK	IC50 (read off the curve)	~2 nM
Positive 3 (analogue antibody) (antibody, V domains shown) VH: QMQLVQSGAEVKKTGSSVKVSCKASGFNIKDYYLHWVRQAPGQALEWMGWIDPDQGDTEYAQKFQDRVTITRDRSMSTAYMELSSLRSEDTAMYYCNAAYGSSSYPMDYWGQGTTVTV VL: NIQMTQSPSAMSASVGDRVTITCKASQDIHRYLSWFQQKPGKVPKHLIYRANRLVSGVPSRFSGSGSGTEFTLTISSLQPEDFATYYCLQYDEFPYTFGGGTKVEIK	IC50 (read off the curve)	~3 nM

Consider the record given below.
*Q* Consider the binder shown here: ABU40 (Fab) (Fab, V domains shown, Phage-derived Fab: murine VL and VH fused to human CL and CH1) VH: EVQLQQPGTELVKPGASVKLSCKASGYSFTTYWMHWVKQRPGQGLEWIGNINPSSGDSHYNEKFKSKATLTVDKSSSTAYMQLNSLTSEDSAVYYCARDYYGAYWGHGTLVTVSA VL: DIQMTQSPASLSASVGETVTITCRASENIYSYLAWYQQKQGKSPQLLVYNAKTLAEGVPSRFSGSGSGTQFSLKINSLQPEDFGSYYCQHHYGTPLTFGAGTKLELK What is its recorded IC50 (read off the curve)?
*A* ~2 nM
